These data points were gathered from patent US10745402B2.

- target: κ-opioid receptor (Homo sapiens, UniProt P41145)
- Sequence (P41145 whole entry): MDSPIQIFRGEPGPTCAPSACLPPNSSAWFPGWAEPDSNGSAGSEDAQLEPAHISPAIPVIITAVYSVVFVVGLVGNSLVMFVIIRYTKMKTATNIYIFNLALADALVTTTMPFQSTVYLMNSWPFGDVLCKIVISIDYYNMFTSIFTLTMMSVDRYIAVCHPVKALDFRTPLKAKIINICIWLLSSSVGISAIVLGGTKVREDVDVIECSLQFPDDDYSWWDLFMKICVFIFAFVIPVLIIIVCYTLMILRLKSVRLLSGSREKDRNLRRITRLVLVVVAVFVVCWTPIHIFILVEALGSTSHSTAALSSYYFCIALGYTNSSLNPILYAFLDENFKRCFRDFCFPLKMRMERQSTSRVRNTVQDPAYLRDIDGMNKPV
- assay-details: [35S]GTPγS functional assay, κ-opioid receptor (HEK-293 or CHO cells)
- Type: biochemical
- Set-up: made in house; host or cells: HEK-293 or CHO
quantity-measured: pEC50
Worth noting: pEC50 values are minus log10 of concentrations stated in mol/L.

Find the measured pEC50: item CN1CC[C@]23CCCC[C@@]2(O)[C@H]1Cc1ccc(C(N)=O)cc13 [Compound 1] , target or system κ-opioid receptor (Homo sapiens, UniProt P41145).
6.21

----------
- target: κ-opioid receptor (Homo sapiens)
- assay-details: β-Arr2 activity response in U2OS cells, κ-opioid receptor
- Format: cell-based
- Design: expressed in transfected cells; host or cells: U2OS (U-2 OS)
pEC50: −log10 of the molar value.
quantity-measured: pEC50

What value of measured pEC50 is listed for CN1CC[C@]23CCCC[C@@]2(O)[C@H]1Cc1ccc(C(N)=O)cc13 [Compound 1] ?
< 4.70
